The reported measurements were obtained from patent US6444691B1.

test system: rabbit intestinal mucosa ACAT (acylCoa:cholesterol acyltransferase); assay: In vitro inhibition of ACAT activity, rabbit intestinal mucosa microsomal fraction; format: biochemical; conditions: rabbit intestinal mucosa microsomes, concentration 2 μM, versus enzyme activity in 1% dimethylsulfoxide
observation.type: Efficiency (%) mucosa (ACAT inhibition)

* O=C(Nc1ccc(Sc2ccc([N+](=O)[O-])cc2)cc1)Nc1c(Cl)cccc1Cl | 21
* Nc1ccc(Sc2ccc(NC(=O)Nc3ccc(F)cc3F)cc2)cc1 | 25
* O=C(Nc1ccc(Sc2ccc([N+](=O)[O-])cc2)cc1)Nc1ccccc1C(F)(F)F | 38
* O=C(Nc1ccc(Sc2ccc([N+](=O)[O-])cc2)cc1)Nc1cc(F)ccc1F | 16

---

tested on: rabbit intestinal mucosa ACAT (acylCoa:cholesterol acyltransferase); experiment: In vitro inhibition of ACAT activity, rabbit intestinal mucosa microsomal fraction; type: biochemical; details: rabbit intestinal mucosa microsomes, concentration 2 μM, versus enzyme activity in 1% dimethylsulfoxide
observation.type: Efficiency (%) mucosa (ACAT inhibition)

* O=C(Nc1ccc(Oc2ccc([N+](=O)[O-])cc2)cc1)Nc1ccccc1Cl | 0
* Cc1cccc(C)c1NC(=O)Nc1ccc(Oc2ccc([N+](=O)[O-])cc2)cc1 | 65
* CC(C)c1cccc(C(C)C)c1NC(=O)Nc1ccc(Oc2ccc([N+](=O)[O-])cc2)cc1 | 67
* O=C(Nc1ccc(Sc2ccc([N+](=O)[O-])cc2)cc1)Nc1ccc([N+](=O)[O-])cc1 | 34
* CC(C)c1cccc(C(C)C)c1NC(=O)Nc1ccc(Oc2ccc(N)cc2)cc1 | 64
* Nc1ccc(Oc2ccc(NC(=O)Nc3cccc(Cl)c3Cl)cc2)cc1 | 46
* O=C(Nc1ccncc1)Nc1ccc(Sc2ccc([N+](=O)[O-])cc2)cc1 | 35
* O=C(Nc1ccc(Oc2ccc([N+](=O)[O-])cc2)cc1)Nc1c(Cl)cccc1Cl | 25

---

Catalogue of Efficiency (%) liver (ACAT inhibition) readings, one per entry.
tested on: rat liver ACAT (acylCoa:cholesterol acyltransferase); assay: In vitro inhibition of ACAT activity, rat liver microsomal fraction; type: biochemical; settings: rat liver microsomes, concentration 2 μM, versus enzyme activity in 1% dimethylsulfoxide
observation.type: Efficiency (%) liver (ACAT inhibition)

• Cc1ccccc1NC(=O)Nc1ccc(Oc2ccc([N+](=O)[O-])cc2)cc1 [Example 9] = 0
• O=C(Nc1ccc(Oc2ccc([N+](=O)[O-])cc2)cc1)Nc1ccc2ccccc2c1 [Example 22] = 0
• O=C(Nc1ccc(Oc2ccc([N+](=O)[O-])cc2)cc1)Nc1cc(Cl)cc(Cl)c1 [Example 8] = 0
• Cc1ccc(NC(=O)Nc2ccc(Oc3ccc([N+](=O)[O-])cc3)cc2)cc1 [Example 10] = 0
• O=C(Nc1ccc(Sc2ccc([N+](=O)[O-])cc2)cc1)Nc1c(Cl)cccc1Cl [Example 34] = 15
• O=C(Nc1ccc(Sc2ccc([N+](=O)[O-])cc2)cc1)Nc1cccnc1 [Example 47] = 45
• O=C(Nc1ccc(Oc2ccc([N+](=O)[O-])cc2)cc1)Nc1cccc(C(F)(F)F)c1 [Example 16] = 38
• O=C(Nc1ccncc1)Nc1ccc(Sc2ccc([N+](=O)[O-])cc2)cc1 [Example 48] = 53
• O=C(Nc1ccc(Cl)cc1)Nc1ccc(Sc2ccc([N+](=O)[O-])cc2)cc1 [Example 31] = 12
• O=C(Nc1ccc(Sc2ccc([N+](=O)[O-])cc2)cc1)Nc1ccccn1 [Example 46] = 48
• O=C(Nc1ccc(Oc2ccc([N+](=O)[O-])cc2)cc1)Nc1ccccn1 [Example 18] = 26
• O=C(Nc1ccc(Sc2ccc([N+](=O)[O-])cc2)cc1)Nc1ccc2ccccc2c1 [Example 50] = 16
• O=C(Nc1ccc(Sc2ccc([N+](=O)[O-])cc2)cc1)NC12CC3CC(CC(C3)C1)C2 [Example 51] = 45
• Nc1ccc(Sc2ccc(NC(=O)Nc3cccc(Cl)c3Cl)cc2)cc1 [Example 57] = 15
• O=C(Nc1ccc(Sc2ccc([N+](=O)[O-])cc2)cc1)Nc1ccc(C(F)(F)F)cc1 [Example 45] = 23
• Cc1ccc(NC(=O)Nc2ccc(Sc3ccc([N+](=O)[O-])cc3)cc2)cc1 [Example 38] = 21
• O=C(Nc1ccc(Oc2ccc([N+](=O)[O-])cc2)cc1)Nc1cccc2ccccc12 [Example 21] = 14
• O=C(Nc1ccc(Sc2ccc([N+](=O)[O-])cc2)cc1)Nc1ccc([N+](=O)[O-])cc1 [Example 24] = 0
• O=C(Nc1ccc(Sc2ccc([N+](=O)[O-])cc2)cc1)Nc1cccc2ccccc12 [Example 49] = 24
• CC(C)c1cccc(C(C)C)c1NC(=O)Nc1ccc(Oc2ccc(N)cc2)cc1 [Example 55] = 68
• O=C(Nc1ccc(Oc2ccc([N+](=O)[O-])cc2)cc1)Nc1cc(F)ccc1F [Example 3] = 49
• O=C(Nc1ccc(Oc2ccc([N+](=O)[O-])cc2)cc1)Nc1ccccc1C(F)(F)F [Example 15] = 46
• Nc1ccc(Oc2ccc(NC(=O)Nc3ccc(F)cc3F)cc2)cc1 [Example 52] = 53
• Cc1cc(C)cc(NC(=O)Nc2ccc(Oc3ccc([N+](=O)[O-])cc3)cc2)c1 [Example 13] = 0
• O=C(Nc1ccc(Sc2ccc([N+](=O)[O-])cc2)cc1)Nc1ccccc1C(F)(F)F [Example 43] = 25
• CC(C)c1cccc(C(C)C)c1NC(=O)Nc1ccc(Sc2ccc([N+](=O)[O-])cc2)cc1 [Example 42] = 88
• O=C(Nc1ccc(Sc2ccc([N+](=O)[O-])cc2)cc1)Nc1c(F)cccc1F [Example 29] = 11
• O=C(Nc1ccc(Sc2ccc([N+](=O)[O-])cc2)cc1)Nc1ccc(Cl)cc1Cl [Example 33] = 12
• Nc1ccc(Oc2ccc(NC(=O)Nc3cccc(Cl)c3Cl)cc2)cc1 [Example 53] = 55
• O=C(Nc1ccc(Sc2ccc([N+](=O)[O-])cc2)cc1)Nc1ccccc1F [Example 25] = 0
• O=C(Nc1ccncc1)Nc1ccc(Oc2ccc([N+](=O)[O-])cc2)cc1 [Example 20] = 11

---

Catalogue of Efficiency (%) liver (ACAT inhibition) readings, one per entry.
system: rat liver ACAT (acylCoa:cholesterol acyltransferase); test: In vitro inhibition of ACAT activity, rat liver microsomal fraction; assay type: biochemical; details: rat liver microsomes, concentration 2 μM, versus enzyme activity in 1% dimethylsulfoxide
observation.type: Efficiency (%) liver (ACAT inhibition)

• Cc1cccc(C)c1NC(=O)Nc1ccc(Sc2ccc(N)cc2)cc1 = 21
• Cc1cccc(C)c1NC(=O)Nc1ccc(Oc2ccc([N+](=O)[O-])cc2)cc1 = 41
• O=C(Nc1ccc(Sc2ccc([N+](=O)[O-])cc2)cc1)Nc1ccc(Cl)c(Cl)c1 = 0
• O=C(Nc1ccc(F)cc1)Nc1ccc(Sc2ccc([N+](=O)[O-])cc2)cc1 = 25
• CC(C)c1cccc(C(C)C)c1NC(=O)Nc1ccc(Oc2ccc([N+](=O)[O-])cc2)cc1 = 50
• O=C(Nc1ccc(Sc2ccc([N+](=O)[O-])cc2)cc1)Nc1ccc(F)cc1F = 16
• O=C(Nc1ccc(Oc2ccc([N+](=O)[O-])cc2)cc1)Nc1ccc(F)cc1F = 37
• O=C(Nc1ccc(Oc2ccc([N+](=O)[O-])cc2)cc1)Nc1ccc(C(F)(F)F)cc1 = 25
• O=C(Nc1ccc(Sc2ccc([N+](=O)[O-])cc2)cc1)Nc1cc(F)ccc1F = 0
• O=C(Nc1ccc(Oc2ccc([N+](=O)[O-])cc2)cc1)Nc1ccccc1F = 15
• O=C(Nc1ccc(Sc2ccc([N+](=O)[O-])cc2)cc1)Nc1ccccc1Cl = 20
• O=C(Nc1ccc(Oc2ccc([N+](=O)[O-])cc2)cc1)Nc1cccc(Cl)c1Cl = 58
• Cc1cccc(C)c1NC(=O)Nc1ccc(Oc2ccc(N)cc2)cc1 = 38
• Cc1ccccc1NC(=O)Nc1ccc(Sc2ccc([N+](=O)[O-])cc2)cc1 = 27
• O=C(Nc1ccc(Oc2ccc([N+](=O)[O-])cc2)cc1)Nc1c(F)cccc1F = 0
• Cc1cc(C)cc(NC(=O)Nc2ccc(Sc3ccc([N+](=O)[O-])cc3)cc2)c1 = 18
• O=C(Nc1ccc(Oc2ccc([N+](=O)[O-])cc2)cc1)Nc1ccccc1Cl = 0
